Provide the reported Calcium flux IC50 (nM); 10 nM hIP-10; hCXCR3 L1.2 cells of each item.
Target: T1, recombinant human IP-10 (hIP-10) (human, UniProt P02778 22-98)
T1 sequence (looked up): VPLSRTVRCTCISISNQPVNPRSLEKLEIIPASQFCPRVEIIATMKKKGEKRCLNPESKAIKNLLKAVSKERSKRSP
Test: cell-based or functional assay
Answer with a number only, understood to be in nM.

Calcium flux IC50 (nM); 10 nM hIP-10; hCXCR3 L1.2 cells for CC21R3P1_C1a, scFv format (scFv) QVQLVESGGGVVQPGRSLRLSCAASGFTFSSYGMHWVRQAPGKGLEWVAVISYDGSNKYYADSVKGRFTISRDNSKNTLYLQMNSLRAEDTAVYYCAKDEFDAFDIWGRGTMVTVSSSYVLTQPPSVSVAPGTTARITCGGNNIGSRSVHWYQQKPGQAPLLVIYYDSDRPSGIPLRFSGSNSGNTATLTISRVEAGDEADYYCQVWDTSSGHYVFGTGTKVTVL ? 37

Need Calcium flux IC50 (nM); 10 nM hIP-10; hCXCR3 L1.2 cells, item CB21R3P3_E5, scFv format (scFv) QVQLVESGGGVVQPGRSLRLSCAASGFTFSSYGMHWVRQAPGKGLEWVAVISYDGSIKYYADSVKGRFTISRDNSKNTLYLQMNSLRAEDAAVYYCARAPDGHQLDYWGRGTLVTVSSNFMLTQPHSVSESPGKTVTISCTGSSGSIASNYVQWYQQRPGSAPTTVIYEDDQRPSDVPDRFSGSIDSSSNSASLTISGLRTEDEADYYCQSYVSSKWVFGGGTKLTVL 39

Suppose we examine the binder CC21R3P1_F1, scFv format (scFv) QVQLVESGGGVVQPGRSHTLSCAASGFAFKNSGIHWVRQAPGKGLEWVAVISYDGSNKFYADSVKGRFTISRDNSQNTVYLQMTDLRPDDTAVYYCARDGSESEYLDYWGKGTLVTVSSNFMLTQPHSVSESPGKTVTISCTGSGGSIDRNYVQWYQQRPGSAPITVIYEDNQRPSGVPDRFSGSIDSSSNSASLTISGLRTDDEADYYCQSYDSINLWVFGGGTKVTVL ; what Calcium flux IC50 (nM); 10 nM hIP-10; hCXCR3 L1.2 cells value has been reported? 36

Data provenance is patent US20100330094A1.
